Listing of entries alongside the reported MIC.
Test system: Bacillus subtilis
PROTOCOL TEXT: Antibacterial activity against Bacillus subtilis assessed as inhibition of bacterial growth after 24 hrs by microdilution method
Type: functional

| STRUCTURE SMILES STRING | UNITS TEXT | MIC |
| --- | --- | --- |
| CC[C@H](C)C(=O)[C@@H](C)c1cc(O)c2c(c1O)O[C@]1(C)CC[C@H]3O[C@@H](C(C)(C)O)CC[C@]3(C)[C@H]1C2=O | µM | 26 |
| CC[C@H](C)C(=O)[C@@H](C)C1=CC(=O)C2=C(O[C@]3(C)CC[C@H]4O[C@@H](C(C)(C)O)CC[C@]4(C)[C@H]3C2)C1=O | µM | 26 |
| CC[C@H](C)C(=O)[C@@H](C)C1=CC(=O)C2=C(O[C@]3(C)CC[C@H]4O[C@@H](C(C)(C)O)CC[C@]4(C)[C@H]3[C@@H]2O)C1=O | µM | 26 |
| CN(C)[C@@H]1C(O)=C(C(N)=O)C(=O)[C@@]2(O)C(O)=C3C(=O)c4c(O)cccc4[C@@](C)(O)[C@H]3C[C@@H]12 | µM | 3.5 |

###

Tested on: Clostridium perfringens
PROTOCOL TEXT: Antibacterial activity against Clostridium perfringens assessed as inhibition of bacterial growth after 24 hrs by microdilution method
Type: functional
RESULT TYPE: MIC (µM)

| STRUCTURE SMILES STRING | RESULT TYPE | UNITS TEXT | VALUE |
| --- | --- | --- | --- |
| CC[C@H](C)C(=O)[C@@H](C)C1=CC(=O)C2=C(O[C@]3(C)CC[C@H]4O[C@@H](C(C)(C)O)CC[C@]4(C)[C@H]3[C@@H]2O)C1=O | MIC | µM | 26 |
| CN(C)[C@@H]1C(O)=C(C(N)=O)C(=O)[C@@]2(O)C(O)=C3C(=O)c4c(O)cccc4[C@@](C)(O)[C@H]3C[C@@H]12 | MIC | µM | 3.5 |
| CC[C@H](C)C(=O)[C@@H](C)c1cc(O)c2c(c1O)O[C@]1(C)CC[C@H]3O[C@@H](C(C)(C)O)CC[C@]3(C)[C@H]1C2=O | MIC | µM | 26 |
| CC[C@H](C)C(=O)[C@@H](C)C1=CC(=O)C2=C(O[C@]3(C)CC[C@H]4O[C@@H](C(C)(C)O)CC[C@]4(C)[C@H]3C2)C1=O | MIC | µM | 26 |

These entries and their values trace back to ChEMBL document CHEMBL4373714.
